Assignment: determine reported EC50 for the given binders.
target: 重组hu-SIRPα-his (human, UniProt P78324 31-370, limits assumed); experiment: ELISA on coated hu-SIRPα-his (0.5 μg/ml), anti-mouse IgG-HRP
Sequence (P78324 31-370 limits assumed): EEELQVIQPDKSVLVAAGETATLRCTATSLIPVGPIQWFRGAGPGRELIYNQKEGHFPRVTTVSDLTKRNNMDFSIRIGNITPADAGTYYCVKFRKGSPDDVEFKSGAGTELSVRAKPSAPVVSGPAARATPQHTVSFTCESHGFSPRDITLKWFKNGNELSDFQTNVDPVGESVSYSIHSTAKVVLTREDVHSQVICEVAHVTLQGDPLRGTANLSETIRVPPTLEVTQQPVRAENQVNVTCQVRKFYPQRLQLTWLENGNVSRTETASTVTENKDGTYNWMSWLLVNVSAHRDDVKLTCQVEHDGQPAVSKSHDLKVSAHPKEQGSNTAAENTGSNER
I only need the number, in µg/mL, no unit after it.

Which EC50 reading was recorded for the binder 36D6 (antibody, V domains shown, also called 抗SIRPα抗体36D6) VH: EVQLQESGPELKKPGETVKISCKASGYTFTKYGMNWVKQAPGKGLKWLAWINTDTGEAKYSDDFKGRFAFSLETSASIVYLQINNLKNEDTATYFCARGESYSNYVRFVYWGQGTTVTVSS VL: DIVMTQSHKFMSTSVGDRVSITCKASQDVNTAVAWYQQKAGHSPKLLIYWTSTRHTGVPDRFTGSGSGTDYTLTISSVQAEDLTLYYCQQHYSTPWTFGGGTKLEIK ? 0.0192

Next: 36G4 (antibody, V domains shown, also called 抗SIRPα抗体36G4) VH: EVQLVESGGGLVQPGGSLKLSCAASGFTFSNYGMSWVRQTPDKRLELVATINSNGGDTSYPDSVRGRFTISRDNAKNTLYLQMSSLKSEDTAMYYCTRGGWSWFAYWGQGTLVTVSA VL: DIVLTQSPTSLAVSLGQRATISCRASESADSYGNSYMNWYQQKPGQPPKLLIYLASNLESGVPARFSGSGSRTDFTLTIDPVEADDAATYYCQQINEDPYTFGGGTKLEIK 0.0235
